tested on: HOP-92 NSCLC; assay: NCI tumour cell line growth inhibition, 48 h
Could you label it True if measured TGI is 10 µM or higher, and False otherwise?

Molecule	Target or test system	Label
c1ccc2c(c1)CCC/C2=N\OCC1CO1 (configuration not stated)	HOP-92 NSCLC	True
CSc1ccc(C2=NN(C(=O)c3ccc(F)cc3)C(c3ccc(F)cc3)C2)cc1 (configuration not stated)	HOP-92 NSCLC	True
COc1cc2c[n+](C)c3c4cc5c(cc4ccc3c2cc1OC)OCO5	HOP-92 NSCLC	False
COc1ccc([N+](=O)[O-])c2c(NCCCN(C)C)c3ccccc3nc12	HOP-92 NSCLC	False
O=C(/C=C/c1ccc([N+](=O)[O-])o1)N1CCN(Cc2ccccc2)CC1	HOP-92 NSCLC	True

Exercise: Reported TGI at or above 10 µM? O=C1CC(=O)NC(=NN2C(=O)/C(=C/C(=O)c3ccco3)N=C2c2ccccc2)N1
Key: True

Exercise: Reported TGI at or above 10 µM? O=[N+]([O-])c1cccc(/C=N\NS(=O)(=O)c2ccc(Cl)cc2)c1O
Key: True

Exercise: Reported TGI at or above 10 µM? COc1ccc2cc(CNCCCCCCCCCCCCNCc3ccc4cc(OC)ccc4c3)ccc2c1
Key: True

Exercise: Reported TGI at or above 10 µM? c1ccc2c(C3CCN(CCN4CCOCC4)C3)c[nH]c2c1 (configuration not stated)
Key: True

Exercise: Reported TGI at or above 10 µM? COC1CC(C)C(OC)C2=CC(=O)C=C(NC(=O)/C(C)=C/C=C\C(C)C(OC(N)=O)/C(C)=C\C(C)C1OC)C2=O (configuration not stated)
Key: True

Exercise: Reported TGI at or above 10 µM? CCCCCCCCCCCCCCCCCCNc1ccn(C2OC(COP(=O)(O)OC3CC(n4cc(F)c(=O)[nH]c4=O)OC3COP(=O)(O)OCC3OC(n4ccc(N)nc4=O)C(O)C3O)C(O)C2O)c(=O)n1 (configuration not stated)
Key: True

Exercise: Reported TGI at or above 10 µM? COC(=O)CCc1cc(OC)c2c(c1)C(C(=O)OC)C(c1ccc(OC)c(OC)c1)O2 (configuration not stated)
Key: True

---

system: KM12 colon; test: NCI tumour cell line growth inhibition, 48 h
Measurement label: TGI

Compound	Measurement label	Test value
CCOC(=O)CCC(NC(=O)c1ccc(CNc2nc3ccccc3nc2C(=O)OCC)cc1)C(=O)OCC (configuration not stated)	TGI	> 100 µM
CC(C)=CCC[C@@H](C)C1=C(O)C(O)C(C)=C2N=C(c3ccccc3)C(=O)OC21 (some centres not stated)	TGI	> 18.3 µM
CC(=O)c1c(C)[nH]c(-c2nc3ccc(N4CCN(C)CC4)cc3[nH]2)c1-c1ccc(OCC2CCOCC2)cc1	TGI	14.6 µM
COc1cc(OC)cc(C2CC(=O)Nc3c2c(C)nn3-c2nc3ccccc3[nH]2)c1 (configuration not stated)	TGI	7.68 µM
CCN(CC)C1Oc2cc3c(cc2C(c2ccc(OC)cc2)C1C)OCO3 (configuration not stated)	TGI	53.2 µM
NNC(=O)/C(=C/c1ccc(Cl)c(Cl)c1)NC(=O)c1ccccc1	TGI	> 100 µM

Batch: TGI for all items listed.
1. O=C(c1cc(Cl)cc(Cl)c1)N(C(=O)N1CCN(c2ccccc2)CC1)c1ccccc1
2. CC1=C2[C@@H](CC1)[C@]1(C)O[C@@](C3CCCCC3)(C[C@H]1OC(=O)CO)[C@H]2OC(=O)/C=C/c1ccccc1

Key:
> 100 µM
24.7 µM

Batch: TGI for all items listed.
1. C=C1C(=O)OC2/C=C(\CO)C3OC3C3OC3(C)CC(OC(=O)/C(=C/C)CO)C12 (configuration not stated)
2. Cc1cc(I)cc(CN(C)CCCN2CCSCC2)c1O
3. CNc1c2cccc(C)c2nc2c(C(=O)NCCN(C)C)cccc12
4. OC1(CCc2ccccc2)COC(C(F)(F)F)(C(F)(F)F)C1 (configuration not stated)
5. CN1CCC2(CC1)SC[C@H]1C(=O)N(c3ccc(Cl)cc3)C(=O)N12
6. CC(=O)[O-].CC(=O)[O-].[Pt+2].c1cscn1.c1cscn1

Key:
1: > 100 µM; 2: > 100 µM; 3: 1.67 µM; 4: > 100 µM; 5: > 100 µM; 6: > 100 µM

Batch: TGI for all items listed.
1. C=CCC(N[C@H](CO)c1ccccc1)c1ccc2ccccc2n1 (some centres not stated)
2. COC(=O)C1=C(O)C(C(=O)OC)[C@]2(O)[C@H](C(=O)OC)[C@H]1C[C@@H](c1ccc(F)cc1)[C@H]2C(=O)OC (some centres not stated)
3. COC(=O)Nc1nc2ccc(S(=O)(=O)NC(CC(C)C)C(=O)OC)cc2[nH]1 (configuration not stated)

Key:
1: > 100 µM; 2: 47.9 µM; 3: 12.6 µM

Batch: TGI for all items listed.
1. Cc1cc(C)nc(NS(=O)(=O)c2ccc(NNc3c4ccccc4nc4c(C(=O)Nc5ccc(S(=O)(=O)Nc6ncccn6)cc5)cccc34)cc2)n1
2. CSc1ccc(C2=NN(C(=O)c3ccc(F)cc3)C(c3ccc(F)cc3)C2)cc1 (configuration not stated)

Key:
1. > 100 µM
2. 5.83 µM

Batch: TGI for all items listed.
1. COc1ccc(OC)c2sc(N3C(=O)/C(=C/c4ccc(Cl)cc4)N=C3c3ccccc3)nc12
2. O=C1CC(NC(=O)C(F)(F)F)c2c1csc2Br (configuration not stated)
3. CCN(CC)CSc1nc2ccccc2o1

Key:
> 100 µM
> 100 µM
> 100 µM
